# credit: patent US20100293752

# Assay target: osteopontin (OPN) (Homo sapiens, UniProt P10451 P10451:17-314)
# Sequence (P10451 17-314, one chain of several): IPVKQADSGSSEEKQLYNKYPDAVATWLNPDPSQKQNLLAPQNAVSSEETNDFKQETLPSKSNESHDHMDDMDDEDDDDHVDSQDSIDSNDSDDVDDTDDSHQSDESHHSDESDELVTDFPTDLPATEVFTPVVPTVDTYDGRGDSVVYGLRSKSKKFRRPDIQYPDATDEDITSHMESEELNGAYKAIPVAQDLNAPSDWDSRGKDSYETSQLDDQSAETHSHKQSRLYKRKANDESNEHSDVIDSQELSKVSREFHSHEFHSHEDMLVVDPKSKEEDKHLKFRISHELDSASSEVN
# Test details: filter; double-filter nitrocellulose, selection buffer, 37 C; OPN species not specified for this assay
# Condition description: label: 5'-32P; stem-loop (predicted, mFold)
Assay metric: pKd
Friendly reminder that pKd comes from taking -log10 of the concentration in mol/L.

According to the records, this binder CGGCCACAGAAUGAAAAACCUCAUCGAUGUUGCAUAGUUG (ssRNA, 2'-F on all C and U) [OPN-R3 32P-labelled] displays pKd of 7.74
